Values from paper PMC8307404

Each entry below carries its recorded remaining activity at 1 µM.
- TESTED_ON: STK33 (Homo sapiens)
- Sequence (Q9BYT3 whole entry): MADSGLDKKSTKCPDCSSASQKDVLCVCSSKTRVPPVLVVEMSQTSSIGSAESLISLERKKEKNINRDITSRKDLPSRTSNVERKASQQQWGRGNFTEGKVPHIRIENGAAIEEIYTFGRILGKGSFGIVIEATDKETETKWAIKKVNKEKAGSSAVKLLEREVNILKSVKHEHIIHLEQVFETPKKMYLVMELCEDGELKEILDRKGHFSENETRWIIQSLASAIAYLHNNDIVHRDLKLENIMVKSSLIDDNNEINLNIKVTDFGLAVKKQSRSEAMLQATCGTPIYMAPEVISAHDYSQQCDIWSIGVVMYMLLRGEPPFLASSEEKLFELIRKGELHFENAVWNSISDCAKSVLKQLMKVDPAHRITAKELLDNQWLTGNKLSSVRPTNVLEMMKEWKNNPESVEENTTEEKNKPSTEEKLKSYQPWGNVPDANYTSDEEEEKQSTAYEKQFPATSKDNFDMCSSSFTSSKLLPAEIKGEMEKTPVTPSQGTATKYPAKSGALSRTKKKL
- ASSAY: Kinase profiling (radiometric filter-binding)
- Format: biochemical
- STATED_CONDITIONS: STK33, 1 µM inhibitor; read-out: Residual activity, %
Square brackets hold non-standard residues; d marks the D form. Peptide text beside a SMILES is read from it. * marks the point of attachment. X3 = O=C(CCCCCNCc1nc2c(sc3cc(Br)cnc32)c(=O)[nH]1)*

>  <MOLECULE>
N=C(N)NCCC[C@@H](NC(=O)CNC(=O)[C@@H](CCCNC(=N)N)NC(=O)[C@@H](CCCNC(=N)N)NC(=O)CCCCCCCNCc1nc2c(sc3cc(Br)cnc32)c(=O)[nH]1)C(=O)N[C@H](CCCCN)C(N)=O

>  <remaining activity at 1 µM>
110%

$$$$
>  <MOLECULE>
N=C(N)NCCC[C@@H](NC(=O)CNC(=O)[C@@H](CCCNC(=N)N)NC(=O)[C@@H](CCCNC(=N)N)NC(=O)CCCCCCCNCc1nc2c(sc3ccc(Br)cc32)c(=O)[nH]1)C(=O)N[C@H](CCCCN)C(N)=O

>  <remaining activity at 1 µM>
106%

$$$$
>  <MOLECULE>
N=C(N)NCCC[C@@H](NC(=O)CCCCCNC(=O)Cn1cnc2c(I)c(I)c(I)c(I)c21)C(=O)N[C@H](CCCNC(=N)N)C(=O)N[C@H](CCCNC(=N)N)C(=O)N[C@H](CCCNC(=N)N)C(=O)N[C@H](CCCNC(=N)N)C(=O)N[C@H](CCCNC(=N)N)C(=O)N[C@H](CCCCN)C(N)=O

>  <remaining activity at 1 µM>
84%

$$$$
>  <MOLECULE>
N=C(N)NCCC[C@@H](NC(=O)CCCCCNCc1nc2c(sc3cc(Br)cnc32)c(=O)[nH]1)C(=O)N[C@H](CCCNC(=N)N)C(=O)N[C@H](CCCNC(=N)N)C(=O)N[C@H](CCCNC(=N)N)C(=O)N[C@H](CCCNC(=N)N)C(=O)N[C@H](CCCNC(=N)N)C(=O)N[C@H](CCCCN)C(N)=O [ARC-3126, BPTP-Ahx-(D-Arg)6-D-Lys-NH2] (X3-[dR][dR][dR][dR][dR][dR][dK]-NH2)

>  <remaining activity at 1 µM>
107%

$$$$

Next molecule, remaining activity at 1 µM to be filled in.
Recorded remaining activity at 1 µM (molecule N=C(N)NCCC[C@@H](NC(=O)CNC(=O)[C@@H](CCCNC(=N)N)NC(=O)[C@@H](CCCNC(=N)N)NC(=O)Cn1cc(CNCc2nc3c(sc4ccc(Br)cc43)c(=O)[nH]2)nn1)C(=O)N[C@H](CCCCN)C(N)=O ): 91%

###

- TESTED_ON: PAK5 (Homo sapiens, UniProt Q9P286)
- Sequence (Q9P286 whole entry): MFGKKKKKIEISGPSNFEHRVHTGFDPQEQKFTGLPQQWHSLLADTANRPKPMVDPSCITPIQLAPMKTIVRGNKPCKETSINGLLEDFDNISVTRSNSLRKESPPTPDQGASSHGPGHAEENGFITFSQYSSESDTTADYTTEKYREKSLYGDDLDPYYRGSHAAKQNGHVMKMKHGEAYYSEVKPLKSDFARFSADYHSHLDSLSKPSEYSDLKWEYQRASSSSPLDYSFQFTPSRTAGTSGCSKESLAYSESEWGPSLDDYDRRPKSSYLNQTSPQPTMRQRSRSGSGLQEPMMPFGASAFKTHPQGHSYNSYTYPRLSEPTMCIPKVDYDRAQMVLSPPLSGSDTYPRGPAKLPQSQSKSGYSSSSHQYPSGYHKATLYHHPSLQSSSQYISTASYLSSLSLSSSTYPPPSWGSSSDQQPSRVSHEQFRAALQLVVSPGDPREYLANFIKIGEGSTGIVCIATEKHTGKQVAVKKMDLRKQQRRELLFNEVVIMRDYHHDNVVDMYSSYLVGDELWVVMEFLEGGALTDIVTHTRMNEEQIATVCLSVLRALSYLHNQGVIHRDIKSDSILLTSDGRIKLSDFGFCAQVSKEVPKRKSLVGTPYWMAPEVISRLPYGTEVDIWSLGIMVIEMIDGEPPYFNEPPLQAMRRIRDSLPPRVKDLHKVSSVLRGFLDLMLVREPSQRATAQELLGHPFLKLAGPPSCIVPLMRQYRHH
- ASSAY: Kinase profiling (radiometric filter-binding)
- Format: biochemical
- STATED_CONDITIONS: PAK5, 1 µM inhibitor; read-out: Residual activity, %
Square brackets hold non-standard residues; d marks the D form. Peptide text beside a SMILES is read from it. * marks the point of attachment. X3 = O=C(CCCCCNCc1nc2c(sc3cc(Br)cnc32)c(=O)[nH]1)*
MEASUREMENT_LABEL: remaining activity at 1 µM (%)
Give the value, in units of %, as a plain number.

>  <COMPOUND>
N=C(N)NCCC[C@@H](NC(=O)CNC(=O)[C@@H](CCCNC(=N)N)NC(=O)[C@@H](CCCNC(=N)N)NC(=O)CCCCCCCNCc1nc2c(sc3ccc(Br)cc32)c(=O)[nH]1)C(=O)N[C@H](CCCCN)C(N)=O [Compound 2, BBTP-Aoc-(D-Arg)2-Gly-D-Arg-D-Lys-NH2]

>  <UNIT_LABEL>
%

>  <remaining activity at 1 µM>
100

$$$$
>  <COMPOUND>
N=C(N)NCCC[C@@H](NC(=O)CNC(=O)[C@@H](CCCNC(=N)N)NC(=O)[C@@H](CCCNC(=N)N)NC(=O)Cn1cc(CNCc2nc3c(sc4ccc(Br)cc43)c(=O)[nH]2)nn1)C(=O)N[C@H](CCCCN)C(N)=O [Compound 3, BBTP-Amt-(D-Arg)2-Gly-D-Arg-D-Lys-NH2]

>  <UNIT_LABEL>
%

>  <remaining activity at 1 µM>
92

$$$$
>  <COMPOUND>
N=C(N)NCCC[C@@H](NC(=O)CCCCCNC(=O)Cn1cnc2c(I)c(I)c(I)c(I)c21)C(=O)N[C@H](CCCNC(=N)N)C(=O)N[C@H](CCCNC(=N)N)C(=O)N[C@H](CCCNC(=N)N)C(=O)N[C@H](CCCNC(=N)N)C(=O)N[C@H](CCCNC(=N)N)C(=O)N[C@H](CCCCN)C(N)=O [ARC-3125, TIBI-CH2-C(=O)-Ahx-(D-Arg)6-D-Lys-NH2]

>  <UNIT_LABEL>
%

>  <remaining activity at 1 µM>
25

$$$$

Recorded remaining activity at 1 µM (compound N=C(N)NCCC[C@@H](NC(=O)CNC(=O)[C@@H](CCCNC(=N)N)NC(=O)[C@@H](CCCNC(=N)N)NC(=O)CCCCCCCNCc1nc2c(sc3cc(Br)cnc32)c(=O)[nH]1)C(=O)N[C@H](CCCCN)C(N)=O [Compound 1, BPTP-Aoc-(D-Arg)2-Gly-D-Arg-D-Lys-NH2] ): 112

Recorded remaining activity at 1 µM (compound N=C(N)NCCC[C@@H](NC(=O)CCCCCNCc1nc2c(sc3cc(Br)cnc32)c(=O)[nH]1)C(=O)N[C@H](CCCNC(=N)N)C(=O)N[C@H](CCCNC(=N)N)C(=O)N[C@H](CCCNC(=N)N)C(=O)N[C@H](CCCNC(=N)N)C(=O)N[C@H](CCCNC(=N)N)C(=O)N[C@H](CCCCN)C(N)=O [ARC-3126, BPTP-Ahx-(D-Arg)6-D-Lys-NH2] (X3-[dR][dR][dR][dR][dR][dR][dK]-NH2) ): 89

###

Each entry below carries its recorded remaining activity at 1 µM.
- TESTED_ON: IR (Homo sapiens)
- Sequence (P06213 28-1382): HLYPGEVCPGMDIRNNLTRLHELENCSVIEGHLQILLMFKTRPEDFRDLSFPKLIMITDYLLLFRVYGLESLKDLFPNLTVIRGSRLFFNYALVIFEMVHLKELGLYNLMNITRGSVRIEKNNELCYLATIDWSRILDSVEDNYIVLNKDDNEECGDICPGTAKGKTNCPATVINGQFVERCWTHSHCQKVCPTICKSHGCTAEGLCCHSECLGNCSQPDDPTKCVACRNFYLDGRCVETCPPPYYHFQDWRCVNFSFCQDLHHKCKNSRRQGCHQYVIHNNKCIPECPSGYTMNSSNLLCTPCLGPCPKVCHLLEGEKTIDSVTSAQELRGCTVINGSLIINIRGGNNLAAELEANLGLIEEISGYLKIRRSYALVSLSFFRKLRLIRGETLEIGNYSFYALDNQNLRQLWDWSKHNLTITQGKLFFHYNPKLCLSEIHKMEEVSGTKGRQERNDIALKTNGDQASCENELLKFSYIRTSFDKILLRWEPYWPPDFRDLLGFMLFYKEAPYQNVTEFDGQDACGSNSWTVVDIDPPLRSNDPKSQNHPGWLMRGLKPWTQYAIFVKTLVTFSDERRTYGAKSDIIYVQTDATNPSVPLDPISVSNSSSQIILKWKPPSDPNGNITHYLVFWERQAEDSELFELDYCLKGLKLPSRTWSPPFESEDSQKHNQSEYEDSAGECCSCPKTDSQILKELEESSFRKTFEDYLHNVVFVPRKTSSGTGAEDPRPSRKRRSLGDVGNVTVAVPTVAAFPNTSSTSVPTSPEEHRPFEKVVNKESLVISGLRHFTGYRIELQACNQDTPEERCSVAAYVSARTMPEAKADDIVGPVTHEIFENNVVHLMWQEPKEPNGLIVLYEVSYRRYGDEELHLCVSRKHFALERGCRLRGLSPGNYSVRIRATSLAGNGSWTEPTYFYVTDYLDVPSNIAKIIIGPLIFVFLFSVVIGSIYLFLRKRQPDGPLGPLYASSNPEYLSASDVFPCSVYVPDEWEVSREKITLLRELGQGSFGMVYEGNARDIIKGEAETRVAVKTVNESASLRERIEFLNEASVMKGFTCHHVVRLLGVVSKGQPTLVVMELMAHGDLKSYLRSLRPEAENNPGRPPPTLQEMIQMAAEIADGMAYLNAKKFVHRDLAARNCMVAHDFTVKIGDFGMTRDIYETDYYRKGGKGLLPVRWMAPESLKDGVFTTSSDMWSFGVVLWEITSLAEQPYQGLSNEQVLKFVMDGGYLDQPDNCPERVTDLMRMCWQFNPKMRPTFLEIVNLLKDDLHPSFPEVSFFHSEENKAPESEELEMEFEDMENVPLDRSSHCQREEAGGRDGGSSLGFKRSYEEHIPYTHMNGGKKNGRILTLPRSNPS
- ASSAY: Kinase profiling (radiometric filter-binding)
- Assay type: biochemical
- STATED_CONDITIONS: 1 µM inhibitor, read-out: Residual activity, %
Square brackets hold non-standard residues; d marks the D form. Peptide text beside a SMILES is read from it. * marks the point of attachment. X3 = O=C(CCCCCNCc1nc2c(sc3cc(Br)cnc32)c(=O)[nH]1)*
Give the value, in units of %, as a plain number.

>  <COMPOUND>
N=C(N)NCCC[C@@H](NC(=O)CCCCCNCc1nc2c(sc3cc(Br)cnc32)c(=O)[nH]1)C(=O)N[C@H](CCCNC(=N)N)C(=O)N[C@H](CCCNC(=N)N)C(=O)N[C@H](CCCNC(=N)N)C(=O)N[C@H](CCCNC(=N)N)C(=O)N[C@H](CCCNC(=N)N)C(=O)N[C@H](CCCCN)C(N)=O [ARC-3126, BPTP-Ahx-(D-Arg)6-D-Lys-NH2] (X3-[dR][dR][dR][dR][dR][dR][dK]-NH2)

>  <remaining activity at 1 µM (%)>
117

$$$$
>  <COMPOUND>
N=C(N)NCCC[C@@H](NC(=O)CNC(=O)[C@@H](CCCNC(=N)N)NC(=O)[C@@H](CCCNC(=N)N)NC(=O)CCCCCCCNCc1nc2c(sc3cc(Br)cnc32)c(=O)[nH]1)C(=O)N[C@H](CCCCN)C(N)=O [Compound 1, BPTP-Aoc-(D-Arg)2-Gly-D-Arg-D-Lys-NH2]

>  <remaining activity at 1 µM (%)>
122

$$$$
>  <COMPOUND>
N=C(N)NCCC[C@@H](NC(=O)CNC(=O)[C@@H](CCCNC(=N)N)NC(=O)[C@@H](CCCNC(=N)N)NC(=O)Cn1cc(CNCc2nc3c(sc4ccc(Br)cc43)c(=O)[nH]2)nn1)C(=O)N[C@H](CCCCN)C(N)=O [Compound 3, BBTP-Amt-(D-Arg)2-Gly-D-Arg-D-Lys-NH2]

>  <remaining activity at 1 µM (%)>
113

$$$$
>  <COMPOUND>
N=C(N)NCCC[C@@H](NC(=O)CNC(=O)[C@@H](CCCNC(=N)N)NC(=O)[C@@H](CCCNC(=N)N)NC(=O)CCCCCCCNCc1nc2c(sc3ccc(Br)cc32)c(=O)[nH]1)C(=O)N[C@H](CCCCN)C(N)=O [Compound 2, BBTP-Aoc-(D-Arg)2-Gly-D-Arg-D-Lys-NH2]

>  <remaining activity at 1 µM (%)>
139

$$$$

Next compound, remaining activity at 1 µM to be filled in.
Recorded remaining activity at 1 µM (compound N=C(N)NCCC[C@@H](NC(=O)CCCCCNC(=O)Cn1cnc2c(I)c(I)c(I)c(I)c21)C(=O)N[C@H](CCCNC(=N)N)C(=O)N[C@H](CCCNC(=N)N)C(=O)N[C@H](CCCNC(=N)N)C(=O)N[C@H](CCCNC(=N)N)C(=O)N[C@H](CCCNC(=N)N)C(=O)N[C@H](CCCCN)C(N)=O [ARC-3125, TIBI-CH2-C(=O)-Ahx-(D-Arg)6-D-Lys-NH2] ): 22
